This collection of values is drawn from ChEMBL document CHEMBL4152362.

- METHOD: Apparent permeability of the compound after 4 hrs by PAMPA
- Format: ADME
Collected Papp at 4 h values appear next to each entry.
ENDPOINT_LABEL: Papp at 4 h (×10⁻⁶ cm/s)

# SMILES_NOTATION, MEASURED_VALUE
records = [
    ("Cc1cnc(Oc2ccc3nc(COc4cccc(C(=O)O)c4)n(C)c3c2)c(F)c1", 5.8),
    ("Cn1c(COc2cccc(C(=O)O)c2)nc2ccc(Oc3cccc(Cl)n3)cc21", 7.6),
    ("Cc1cccc(Oc2ccc3nc(COc4cccc(C(=O)O)c4)n(C)c3c2)n1", 2.7),
    ("Cc1ccc(Oc2ccc3nc(COc4cccc(C(=O)O)c4)n(C)c3c2)nc1C", 7.7),
    ("Cn1c(COc2cccc(C(=O)O)c2)nc2ccc(Oc3ncccc3F)cc21", 3.9),
]

====

- METHOD: AUC (0 to 24 hrs) in Zucker diabetic fatty rat at 0.3 mg/kg, po administered once daily for 21 days followed by additional administration on day 22
- Assay type: ADME, organism-based
- Parameters: dose 0.3 mg/kg, time < 24 hr, route oral
- TEST_SETTINGS: in vivo
Collected AUC at 24 h values appear next to each entry.

# MOLECULE, AUC at 24 h
measured = [
    ("CN(CCOc1ccc(CC2SC(=O)NC2=O)cc1)c1ccccn1 (configuration not stated)", "6550 ng·h/mL"),
    ("Cc1cnc(Oc2ccc3nc(COc4cccc(C(=O)[O-])c4)n(C)c3c2)c(C)c1.Cc1cnc(Oc2ccc3nc(COc4cccc(C(=O)[O-])c4)n(C)c3c2)c(C)c1.[Ca+2]", "861 ng·h/mL"),
]

====

- METHOD: 1-octanol/PBS distribution co-efficient, log D of the compound at […] at pH 7.4 after 30 mins by HPLC-MS/MS method
- Format: physicochemical

# SMILES_NOTATION, logD at 0.5 h
data = [
    ("Cc1ccnc(Oc2ccc3nc(COc4cccc(C(=O)O)c4)n(C)c3c2)c1", 0.8),
    ("Cc1cnc(Oc2ccc3nc(COc4cccc(C(=O)O)c4)n(C)c3c2)c(F)c1", 1.1),
    ("Cc1cc(F)cnc1Oc1ccc2nc(COc3cccc(C(=O)O)c3)n(C)c2c1", 1.1),
    ("Cc1cc(C)cc(Oc2ccc3nc(COc4cccc(C(=O)O)c4)n(C)c3n2)c1", 2.3),
    ("Cn1c(COc2cccc(C(=O)O)c2)nc2ccc(Oc3ccc(Cl)cn3)cc21", 1.2),
    ("Cn1c(COc2cccc(C(=O)O)c2)nc2ccc(Oc3cc(Cl)ccn3)cc21", 1.2),
    ("Cn1c(COc2cccc(C(=O)O)c2)nc2cnc(Oc3ccc(Cl)c(F)c3)cc21", 1.4),
    ("Cc1cccnc1Oc1ccc2nc(COc3cccc(C(=O)O)c3)n(C)c2c1", 0.9),
    ("Cc1ccc(Oc2ccc3nc(COc4cccc(C(=O)O)c4)n(C)c3n2)c(C)c1", 2.3),
    ("Cn1c(COc2cccc(C(=O)O)c2)nc2ccc(Oc3ccc4c(c3)OCC4)nc21", 1.4),
]

====

- METHOD: Tmax in Zucker diabetic fatty rat at 0.3 mg/kg, po administered once daily for 21 days followed by additional administration on day 22
- Format: ADME, organism-based
- TEST_SETTINGS: in vivo
Collected Tmax values appear next to each entry.
ENDPOINT_LABEL: Tmax (h)

# COMPOUND, MEASURED_VALUE
data = [
    ("CN(CCOc1ccc(CC2SC(=O)NC2=O)cc1)c1ccccn1 (configuration not stated)", 1.6),
    ("Cc1cnc(Oc2ccc3nc(COc4cccc(C(=O)[O-])c4)n(C)c3c2)c(C)c1.Cc1cnc(Oc2ccc3nc(COc4cccc(C(=O)[O-])c4)n(C)c3c2)c(C)c1.[Ca+2]", 1.8),
]

====

Collected Cmax values appear next to each entry.
- METHOD: Cmax in Zucker diabetic fatty rat at 0.3 mg/kg, po administered once daily for 21 days followed by additional administration on day 22
- Type: ADME, organism-based
- Design: dose 0.3 mg/kg, route oral
- TEST_SETTINGS: in vivo

# MOLECULE, UNIT_DESCRIPTOR, Cmax
records = [
    ("Cc1cnc(Oc2ccc3nc(COc4cccc(C(=O)[O-])c4)n(C)c3c2)c(C)c1.Cc1cnc(Oc2ccc3nc(COc4cccc(C(=O)[O-])c4)n(C)c3c2)c(C)c1.[Ca+2]", "ng/mL", 79.2),
    ("CN(CCOc1ccc(CC2SC(=O)NC2=O)cc1)c1ccccn1 (configuration not stated)", "ng/mL", 1040),
]

====

- METHOD: 1-octanol/PBS distribution co-efficient, log D of the compound at […] at pH 7.4 after 30 mins by HPLC-MS/MS method
- Format: physicochemical
Collected logD at 0.5 h values appear next to each entry.

# SMILES_NOTATION, logD at 0.5 h
measured = [
    ("Cn1c(COc2cccc(C(=O)O)c2)nc2ccc(Oc3ncccc3F)cc21", 0.6),
    ("Cn1c(COc2cccc(C(=O)O)c2)nc2ccc(Oc3ccc(F)cc3)nc21", 1.5),
    ("Cn1c(COc2cccc(C(=O)O)c2)nc2ccc(Oc3ccccn3)cc21", 0.4),
    ("Cn1c(COc2cccc(C(=O)O)c2)nc2cnc(Oc3ccc4c(c3)CCC4)cc21", 1.6),
    ("Cn1c(COc2cccc(C(=O)O)c2)nc2ccc(Oc3ncc(Cl)cc3Cl)cc21", 1.9),
    ("Cc1ccc(Oc2cc3c(cn2)nc(COc2cccc(C(=O)O)c2)n3C)cc1", 1),
    ("Cc1ccc(Oc2ccc3nc(COc4cccc(C(=O)O)c4)n(C)c3n2)cc1", 1.7),
    ("Cn1c(COc2cccc(C(=O)O)c2)nc2ccc(Oc3ccc(Cl)c(F)c3)cc21", 2.7),
    ("Cc1ccc(C)c(Oc2ccc3nc(COc4cccc(C(=O)O)c4)n(C)c3c2)n1", 1.4),
    ("Cn1c(COc2cccc(C(=O)O)c2)nc2ccc(Oc3ccc4c(c3)CCC4)nc21", 2.5),
]

====

- METHOD: Apparent permeability of the compound after 4 hrs by PAMPA
- Assay type: ADME
ENDPOINT_LABEL: Papp at 4 h (×10⁻⁶ cm/s)

# SMILES_NOTATION, MEASURED_VALUE
measured = [
    ("Cc1ccc(Oc2cc3c(cn2)nc(COc2cccc(C(=O)O)c2)n3C)cc1", 6.8),
    ("Cn1c(COc2cccc(C(=O)O)c2)nc2ccc(Oc3ccc(Cl)c(F)c3)cc21", 38.5),
    ("Cc1cccnc1Oc1ccc2nc(COc3cccc(C(=O)O)c3)n(C)c2c1", 6),
    ("Cc1ccc(Oc2ccc3nc(COc4cccc(C(=O)O)c4)n(C)c3n2)cc1", 12.6),
    ("Cn1c(COc2cccc(C(=O)O)c2)nc2ccc(Oc3ccccn3)cc21", 2.2),
    ("Cc1ccc(Oc2ccc3nc(COc4cccc(C(=O)O)c4)n(C)c3n2)cc1C", 12.4),
    ("Cc1ccc(Oc2ccc3nc(COc4cccc(C(=O)O)c4)n(C)c3n2)c(C)c1", 28.8),
]

====

- METHOD: AUC (0 to 24 hrs) in F344/DuCrlCrlj rat at 100 mg/kg, po via gavage measured on day 28 post dose
- Format: ADME, organism-based
- Parameters: dose 100 mg/kg, time < 24 hr, route oral
- TEST_SETTINGS: in vivo
ENDPOINT_LABEL: AUC at 24 h (µg·h/mL)

# SMILES_NOTATION, ENDPOINT_LABEL, MEASURED_VALUE
records = [
    ("Cc1cnc(Oc2ccc3nc(COc4cccc(C(=O)O)c4)n(C)c3c2)c(C)c1.Cl", "AUC at 24 h", 399),
]

====

- METHOD: Clearance in cynomolgus monkey at 1 mg/kg, iv by LC-MS/MS
- Assay type: ADME, organism-based, Macaca fascicularis
- TEST_SETTINGS: in vivo
I would appreciate it if you labelled entries label 1 when clearance is 2 mL/min/kg or higher, otherwise label 0.

# SMILES_NOTATION, CATEGORY_LABEL
measured = [
    ("Cn1c(COc2cccc(C(=O)O)c2)nc2ccc(Oc3ccc4c(c3)OCC4)nc21", "label 1"),
    ("Cc1cnc(Oc2ccc3nc(COc4cccc(C(=O)O)c4)n(C)c3c2)c(C)c1", "label 1"),
    ("Cc1cnc(Oc2ccc3nc(COc4cccc(C(=O)O)c4)n(C)c3c2)c(F)c1", "label 1"),
    ("Cn1c(COc2cccc(C(=O)O)c2)nc2ccc(Oc3ccc(Cl)c(F)c3)cc21", "label 0"),
    ("Cn1c(COc2cccc(C(=O)O)c2)nc2ccc(Oc3ncc(Cl)cc3F)cc21", "label 0"),
]
